- Test system: TDF;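 note: TDF denotes transformed human dermal fibroblasts of mesenchymal origin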
- experiment_summary: cell number relative to DMSO (% of DMSO); higher = more cells (less growth inhibition / toxicity)
- reported_conditions: concentration: 10 µM; 24 h
# cell number >= 100 gives Criterion met, anything below gives Criterion not met

Incoming: Can NCC(O)c1ccc(O)c(O)c1.O=C(O)C(O)C(O)C(=O)O (stereo not drawn) [L(-)-Norepinephrine bitartrate] be said to have cell number at or above 100?
Outgoing: Criterion met

Incoming: Evaluate CC(C(=O)O)c1ccc2c(c1)Cc1cccnc1O2 (stereo not drawn) [Pranoprofen] : cell number at minimum 100?
Outgoing: Criterion not met

Incoming: Determine whether measured cell number meets or exceeds 100 for COc1cc2c(c(OC)c1OC)-c1c(cc3c(c1OC)OCO3)C[C@H](C)[C@@](C)(O)C2
Outgoing: Criterion not met

Incoming: Answer whether cell number of COC(=O)C(N)Cc1ccc(Cl)cc1.Cl (racemic) [DL-p-Chlorophenylalanine methyl ester hydrochloride] is greater than or equal to 100.
Outgoing: Criterion not met

Incoming: Is cell number at least 100? Consider O=C(CCCc1ccc(-c2ccccc2F)cc1)Nc1ccc(O)cc1 [MK2a Inhibitor]
Outgoing: Criterion not met

Incoming: # check: cell number of CN(CCOc1ccc(CC2SC(=O)NC2=O)cc1)c1ccccn1.O=C(O)C=CC(=O)O (stereo not drawn) [Rosiglitazone maleate] is greater than or equal to 100
Outgoing: Criterion met
